test system: KM12 colon; test: NCI tumour cell line growth inhibition, 48 h
property-name: log10(TGI) (log10 of the value in µM)

1) CCOC(=O)CCC(=O)C1c2cccc(O)c2C(=O)c2c(O)cc(C)cc21 (stereo not given); -0.25
2) C=C1C(=O)O[C@H]2[C@H]1CC/C(COC(=O)NCCCCNC(=O)OC/C1=C/CC[C@@]3(C)O[C@H]3[C@H]3OC(=O)C(=C)[C@@H]3CC1)=C\CC[C@@]1(C)O[C@@H]21; 1.02
3) COc1cc(-c2nc3ccccn3c2/N=C/c2cc(Br)cc(Br)c2O)ccc1O; 1.83
4) C[C@@H](c1ccccc1)n1c(N)c(C#N)c2ccc([N+](=O)[O-])cc2c1=O; 1.63
5) Cc1cc(NC(=S)SCc2ccc(F)cc2)c([N+](=O)[O-])cc1C; 1.65
6) COc1cc(/C=C/c2ccc(OC)c(O)c2)cc(OC)c1; 1.45
7) C=C(C)CCN[Si](c1ccccc1)(c1ccccc1)C(C)(C)C; 1.56
8) CC(C)c1c(O)c(O)c2c(c1O)C(=O)C(O)=C1C(C)(C)CCC[C@@]12C; 1.09

* * *

system: SNB-75 CNS; assay: NCI tumour cell line growth inhibition, 48 h; in the data active = GI50 below about 0.43 µM; inactive = the rest
Possible outcomes: active, inactive

1) COc1ccc(C(=O)c2cc(OC)c(OC)c(OC)c2)cc1/C=C/C(=O)c1ccc(F)cc1; inactive
2) CN1CCN(CCCNc2nc3ccc(Oc4ccc(NC(=O)Nc5cc(C(F)(F)F)ccc5F)cc4)cc3[nH]2)CC1; inactive
3) COc1cc2ncnc(-n3ncc4cc(NC(=O)Nc5ccccc5)ccc43)c2cc1OC; active
4) CCCCC(CC)COC(=O)C[N+](C)(C)CCOC(c1ccccc1)c1ccccc1 (stereo not given); inactive
5) O=C1c2cccnc2-c2nc(-c3ccc(Cl)cc3)cc3c2c1nc1ccccc13; inactive

* * *

system: SNB-19 CNS; assay: NCI tumour cell line growth inhibition, 48 h
property-name: TGI

1. C/C(=N\Nc1ccc(Cl)cn1)c1ccc2ccccc2n1; > 100 µM
2. CCOc1ncn(-c2ccc(NC(=S)NC3OC(CO)C(O)C(O)C3O)cc2)n1 (stereo unspecified); > 100 µM
3. O=C(Nc1nnc(-c2ccc(Cl)cc2)o1)C(SC(=S)N1CCOCC1)c1ccccc1 (stereo unspecified); > 100 µM
4. CCOC1=NC(O)c2cccn2-c2sccc21 (stereo unspecified); > 100 µM
5. CC1=CC(=O)C=CC1=O; 89.4 µM
6. COc1ccc(C(=O)c2cc(OC)c(OC)c(OC)c2)cc1/C=C/C(=O)c1ccc(F)cc1; 5.96 µM
7. C=CCCC1(CC(Sc2ccccc2)P(=O)(c2ccccc2)c2ccccc2)OCCO1 (stereo unspecified); > 10 µM
8. COc1cc(-c2nc3ccccn3c2/N=C/c2cc(Br)cc(Br)c2O)ccc1O; 75.6 µM
9. COc1c(C(=O)/C=C/c2ccccc2)c(O)cc2occc12; 20.4 µM
10. OCC1OC(n2cnc3c2NC=NC[C@H]3O)C(Cl)C1O (stereo partly specified); > 100 µM
11. CCCc1c(O)nc(Nc2nc3ccccc3[nH]2)[nH]c1=O; > 100 µM

* * *

system: SNB-75 CNS; assay: NCI tumour cell line growth inhibition, 48 h
Below, each entry is listed alongside its reported GI50.
property-name: GI50

1. O=C1/C(=C(/c2ccccc2)N2CCOCC2)Cc2ccccc21; 1480 nM
2. COc1ccc(C[N+](C)(C)N)cc1OC; > 100000 nM
3. Nc1nc(Nc2cccnc2)sc1C(=O)c1ccccc1F; 580 nM
4. O=C(Nc1n[nH]c2cc(-c3ccccc3)ccc12)C1CC1; > 20900 nM
5. COc1cc2c(cc1OCCCCC(=O)Nc1cc3c4ccccc4ccc3c3ccccc13)N=C[C@@H]1CCCN1C2=O; 19000 nM
6. COc1ccc(/C=C/c2c(C(=O)/C=C/c3ccccc3)c(C)nc3ccccc23)cc1; 1460 nM

Reference source for all entries: PubChem BioAssay (NCI)
